meta.source: ChEMBL document CHEMBL2417481

system: Human alphaherpesvirus 1; test: Antiviral activity against Herpes simplex virus-1 KOS infected in human HEL cells assessed as reduction in virus-induced cytopathogenicity; format: functional, organism-based; settings: Human alphaherpesvirus 1, KOS
recordedMetric: EC50

Query :: Return EC50 (reported value) for this compound: CCCCc1nc(N)[nH]c(=O)c1Br
Result :: > 100 µM

Query :: Return EC50 (reported value) for this compound: CCCc1nc(N)[nH]c(=O)c1Br
Result :: > 100 µM

Query :: Return EC50 (reported value) for this compound: O=c1[nH]c(=O)n([C@H]2C[C@H](O)[C@@H](CO)O2)cc1/C=C/Br
Result :: 0.4 µM

Query :: Return EC50 (reported value) for this compound: CCCCCc1nc(N)[nH]c(=O)c1Br
Result :: > 100 µM

Query :: Return EC50 (reported value) for this compound: COc1ccc(/C=C/c2nc(N)[nH]c(=O)c2Br)cc1OC
Result :: > 100 µM

Query :: Return EC50 (reported value) for this compound: Nc1nc(CC(O)c2ccccc2C(F)(F)F)c(Br)c(=O)[nH]1 (stereo unspecified)
Result :: > 100 µM

Query :: Return EC50 (reported value) for this compound: Nc1nc2c(ncn2COC(CO)CO)c(=O)[nH]1
Result :: > 100 µM

Query :: Return EC50 (reported value) for this compound: Cc1cc(C)c(/C=C/c2nc(N)[nH]c(=O)c2Br)c(C)c1
Result :: > 20 µM

Query :: Return EC50 (reported value) for this compound: CC(C)(O)Cc1nc(N)[nH]c(=O)c1Br
Result :: > 100 µM

Query :: Return EC50 (reported value) for this compound: Nc1nc(CC(O)c2ccc(Cl)cc2)c(Br)c(=O)[nH]1 (stereo unspecified)
Result :: > 100 µM

Query :: Return EC50 (reported value) for this compound: Nc1nc(CCc2ccccc2)c(Br)c(=O)[nH]1
Result :: > 100 µM

* * *

Assignment: determine reported MCC for the given compounds.
experiment: Cytotoxicity against human HeLa cells assessed as morphological changes; type: cell-based

Query :: Return MCC (reported value) for this compound: Cc1cc(C)c(/C=C/c2nc(N)[nH]c(=O)c2Br)c(C)c1
Result :: 100 µM

Query :: Return MCC (reported value) for this compound: CC(C)(O)Cc1nc(N)[nH]c(=O)c1Br
Result :: > 100 µM

Query :: Return MCC (reported value) for this compound: Nc1nc(CCc2ccccc2)c(Br)c(=O)[nH]1
Result :: > 100 µM

Query :: Return MCC (reported value) for this compound: CCCCc1nc(N)[nH]c(=O)c1Br
Result :: 100 µM

Query :: Return MCC (reported value) for this compound: COc1ccc(/C=C/c2nc(N)[nH]c(=O)c2Br)cc1OC
Result :: > 100 µM

Query :: Return MCC (reported value) for this compound: Nc1nc2c(ncn2COC(CO)CO)c(=O)[nH]1
Result :: > 100 µM

* * *

experiment: Cytotoxicity against african green monkey Vero cells assessed as morphological changes; format: cell-based; details: chlorocebus sabaeus
Assignment: determine reported MCC for the given compounds.

Query :: Return MCC (reported value) for this compound: Nc1ncnc2c1ncn2C[C@H](O)CO [(S)-DHPA]
Result :: > 250 µM

Query :: Return MCC (reported value) for this compound: COc1ccc(/C=C/c2nc(N)[nH]c(=O)c2Br)cc1OC
Result :: > 100 µM

Query :: Return MCC (reported value) for this compound: CCCCc1nc(N)[nH]c(=O)c1Br
Result :: > 100 µM

Query :: Return MCC (reported value) for this compound: NC(=O)c1ncn([C@@H]2O[C@H](CO)[C@@H](O)[C@H]2O)n1
Result :: > 250 µM

Query :: Return MCC (reported value) for this compound: Cc1cc(C)c(/C=C/c2nc(N)[nH]c(=O)c2Br)c(C)c1
Result :: 100 µM

Query :: Return MCC (reported value) for this compound: Nc1nc(CCc2ccccc2)c(Br)c(=O)[nH]1
Result :: > 100 µM

Query :: Return MCC (reported value) for this compound: Nc1nc(CC(O)c2ccccc2C(F)(F)F)c(Br)c(=O)[nH]1 (stereo unspecified)
Result :: > 100 µM

Query :: Return MCC (reported value) for this compound: Nc1nc(CC(O)c2ccc(Cl)cc2)c(Br)c(=O)[nH]1 (stereo unspecified)
Result :: > 100 µM

Query :: Return MCC (reported value) for this compound: CCCc1nc(N)[nH]c(=O)c1Br
Result :: > 100 µM

Query :: Return MCC (reported value) for this compound: CCCCCc1nc(N)[nH]c(=O)c1Br
Result :: > 100 µM

Query :: Return MCC (reported value) for this compound: CC(C)(O)Cc1nc(N)[nH]c(=O)c1Br
Result :: > 100 µM
